Target: NLRP3 (Homo sapiens)
Assay: THP-1 cell-based NLRP3 activation assay
Details: PMA-differentiated THP-1 cells, LPS 100 ng/mL then 10 μM nigericin
Description: THP-1 cells are cultured in complete media (CM) until they reach logarithmic growth and achieve a viability >90%. CM is composed of RPMI-1640 (+Glutamax)/10% fetal bovine serum/55 μM β-mercaptoethanol/pen/strep. Cells are spun down and resuspended to 1,000,000 cells/mL in CM containing either 20 nM or 500 nM PMA. […] The media is again removed and replaced with Opti-Mem medium containing pre-determined dilutions of test compounds in replicate wells. […]
PROPERTY: IC50

// below: answered molecules
[
  {
    "MOLECULE": "CCOc1cc(C(=O)N(C)[C@@H](CO)c2cnc(C)c3cn[nH]c23)ccc1-c1cccc(F)c1 [Compound 027]",
    "IC50": "< 100 nM"
  },
  {
    "MOLECULE": "CCOc1cc(C(=O)N(Cc2cccc3cn[nH]c23)[C@H]2C[C@@H](N(C)C)C2)ccc1-c1cccc(F)c1 [Compound 251]",
    "IC50": "< 100 nM"
  },
  {
    "MOLECULE": "Cc1ccc([C@H](CCN(C)C)N(C)C(=O)c2ccc(-c3cccc(F)c3)c(OC3CC3)c2)c2[nH]ncc12 [Compound 203]",
    "IC50": "< 100 nM"
  },
  {
    "MOLECULE": "CCc1ncc([C@@H](CO)N(C)C(=O)c2ccc(-c3cccc(F)c3)c(OC3CC3)c2)c2[nH]ncc12 [Compound 034]",
    "IC50": "> 15000 nM"
  },
  {
    "MOLECULE": "CCOc1cc(C(=O)N(C)[C@H](CN(C)C)c2cccc3cn[nH]c23)ccc1-c1cccc(Cl)c1 [Compound 220]",
    "IC50": "100 to 500 nM"
  },
  {
    "MOLECULE": "CCOc1cc(C(=O)N(C)[C@H](CCN(C)CCOC)c2cncc3cn[nH]c23)ccc1-c1cccc(F)c1 [Compound 263]",
    "IC50": "< 100 nM"
  }
]

Now for another entry.
Quick one: IC50 for CCOc1cc(C(=O)N(C)[C@H](c2c[nH]cn2)c2cncc3cn[nH]c23)ccc1-c1cccc(F)c1 [Compound 267] ?
100 to 500 nM

---

Molecular target: NLRP3 (Homo sapiens, UniProt Q96P20)
Sequence (Q96P20 whole entry): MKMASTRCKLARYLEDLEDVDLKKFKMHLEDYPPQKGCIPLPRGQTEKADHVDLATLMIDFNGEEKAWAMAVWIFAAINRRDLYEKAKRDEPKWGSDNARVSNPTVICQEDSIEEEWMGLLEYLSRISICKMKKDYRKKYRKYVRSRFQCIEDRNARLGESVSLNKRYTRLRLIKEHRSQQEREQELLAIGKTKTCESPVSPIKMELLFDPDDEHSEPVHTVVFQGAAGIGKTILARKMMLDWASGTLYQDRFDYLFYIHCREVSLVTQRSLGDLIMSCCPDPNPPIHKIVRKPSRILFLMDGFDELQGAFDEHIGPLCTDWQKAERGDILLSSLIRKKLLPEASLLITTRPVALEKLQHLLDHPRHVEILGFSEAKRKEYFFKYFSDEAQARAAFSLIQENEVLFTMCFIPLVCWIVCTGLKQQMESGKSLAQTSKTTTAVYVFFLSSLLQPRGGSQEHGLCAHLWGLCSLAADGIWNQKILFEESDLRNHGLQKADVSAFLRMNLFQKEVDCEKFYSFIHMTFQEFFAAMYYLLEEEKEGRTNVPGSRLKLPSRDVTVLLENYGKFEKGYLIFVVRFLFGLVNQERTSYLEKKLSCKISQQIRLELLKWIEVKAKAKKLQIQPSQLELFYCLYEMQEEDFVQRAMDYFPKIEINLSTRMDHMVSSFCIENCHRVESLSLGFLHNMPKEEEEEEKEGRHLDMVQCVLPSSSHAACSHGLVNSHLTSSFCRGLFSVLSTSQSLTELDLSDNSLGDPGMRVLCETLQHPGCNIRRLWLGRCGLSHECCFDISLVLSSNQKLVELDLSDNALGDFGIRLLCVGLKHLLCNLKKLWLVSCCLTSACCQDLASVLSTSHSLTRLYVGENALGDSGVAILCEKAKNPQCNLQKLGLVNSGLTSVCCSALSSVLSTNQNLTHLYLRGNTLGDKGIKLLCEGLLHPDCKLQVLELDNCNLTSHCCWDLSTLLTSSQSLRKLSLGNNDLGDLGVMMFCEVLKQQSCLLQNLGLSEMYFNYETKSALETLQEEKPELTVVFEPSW
Experiment: THP-1 cell-based NLRP3 activation assay
Details: PMA-differentiated THP-1 cells, LPS 100 ng/mL then 10 μM nigericin
pIC50: −log10 of the molar value.
PROPERTY: pIC50

// below: answered molecules
[
  {
    "MOLECULE": "CN(C)CC[C@H](c1cccc2cn[nH]c12)N(C)C(=O)c1ccc(-c2ccccc2)c(OC2CC2)c1 [Compound 199]",
    "MEASUREMENT TARGET": "NLRP3 (Homo sapiens, UniProt Q96P20)",
    "pIC50": "> 7.00"
  },
  {
    "MOLECULE": "CCOc1cc(C(=O)N(C)[C@H](CCN(C)C)c2cncc3cn[nH]c23)ccc1C1CCC1 [Compound 156]",
    "MEASUREMENT TARGET": "NLRP3 (Homo sapiens, UniProt Q96P20)",
    "pIC50": "> 7.00"
  },
  {
    "MOLECULE": "CCOc1cc(C(=O)N(C)[C@H](c2cncc3cn[nH]c23)C2CNC2)ccc1-c1cccc(C#N)c1 [Compound 142]",
    "MEASUREMENT TARGET": "NLRP3 (Homo sapiens, UniProt Q96P20)",
    "pIC50": "4.82 to 6.00"
  },
  {
    "MOLECULE": "CCOc1cc(C(=O)N(C)[C@H](CO)c2cnc(C)c3cn[nH]c23)ccc1-c1ccccc1 [Compound 020]",
    "MEASUREMENT TARGET": "NLRP3 (Homo sapiens, UniProt Q96P20)",
    "pIC50": "6.30 to 7.00"
  },
  {
    "MOLECULE": "CCOc1cc(C(=O)N(C)[C@H](CCN)c2cncc3cn[nH]c23)ccc1-c1cccc(F)c1 [Compound 038]",
    "MEASUREMENT TARGET": "NLRP3 (Homo sapiens, UniProt Q96P20)",
    "pIC50": "> 7.00"
  },
  {
    "MOLECULE": "CCOc1cc(C(=O)N(C)[C@H](CCN(C)CCF)c2cncc3cn[nH]c23)ccc1-c1cccc(F)c1 [Compound 095]",
    "MEASUREMENT TARGET": "NLRP3 (Homo sapiens, UniProt Q96P20)",
    "pIC50": "> 7.00"
  },
  {
    "MOLECULE": "CCOc1cc(C(=O)N(C)[C@H](CCNC)c2cccc3cn[nH]c23)ccc1-c1cccc(F)c1 [Compound 197]",
    "MEASUREMENT TARGET": "NLRP3 (Homo sapiens, UniProt Q96P20)",
    "pIC50": "> 7.00"
  },
  {
    "MOLECULE": "CCOc1cc(CN(CCN2CCOCC2)Cc2cncc3cn[nH]c23)ccc1-c1cccc(F)c1 [Compound 118]",
    "MEASUREMENT TARGET": "NLRP3 (Homo sapiens, UniProt Q96P20)",
    "pIC50": "6.30 to 7.00"
  },
  {
    "MOLECULE": "CCOc1cc(C(=O)N(C)[C@H](CC[N+](C)(C)[O-])c2cncc3cn[nH]c23)ccc1-c1cccc(F)c1 [Compound 145]",
    "MEASUREMENT TARGET": "NLRP3 (Homo sapiens, UniProt Q96P20)",
    "pIC50": "4.82 to 6.00"
  },
  {
    "MOLECULE": "CCOc1cc(C(=O)N(C)[C@@H](c2cncc3cn[nH]c23)C2CNC2)ccc1-c1cccc(Cl)c1 [Compound 181]",
    "MEASUREMENT TARGET": "NLRP3 (Homo sapiens, UniProt Q96P20)",
    "pIC50": "> 7.00"
  }
]

Quick one: pIC50 for [2H]C([2H])([2H])N(CC[C@H](c1cncc2cn[nH]c12)N(C)C(=O)c1ccc(-c2cccc(F)c2)c(OCC)c1)C([2H])([2H])[2H] [Compound 211] ?
> 7.00

Quick one: pIC50 for CCOc1cc(C(=O)N(C)[C@@H](CN(C)C)c2cncc3cn[nH]c23)ccc1-c1cccc(F)c1 [Compound 122] ?
6.00 to 6.30

Quick one: pIC50 for CCOc1cc(C(=O)N(C[C@H](C)O)[C@@H](C)c2cnc(C)c3cn[nH]c23)ccc1-c1cccc(F)c1 [Compound 061] ?
< 4.82

Quick one: pIC50 for CCOc1cc(C(=O)N(C)[C@H](CN2CCCC2)c2cncc3cn[nH]c23)ccc1-c1cccc(F)c1 [Compound 129] ?
6.00 to 6.30

Quick one: pIC50 for CCOc1cc(C(=O)N(C)[C@H](CCN(C)C)c2cnc(C)c3cn[nH]c23)ccc1-c1cccc(F)c1 [Compound 075] ?
> 7.00

---

Molecular target: NLRP3 (Homo sapiens, UniProt Q96P20)
Assay: THP-1 cell-based NLRP3 activation assay
Settings: PMA-differentiated THP-1 cells, LPS 100 ng/mL then 10 μM nigericin
Listed here are compounds together with their documented IC50.

// below: answered compounds
[
  {
    "COMPOUND": "CCOc1cc(C(=O)N(C)[C@H](CCN(C)C)c2cccc3cn[nH]c23)ccc1-c1cccc(F)c1",
    "IC50": "< 100 nM"
  },
  {
    "COMPOUND": "CCOc1cc(C(=O)N(C)[C@H](c2cncc3cn[nH]c23)C2CN(CC)C2)ccc1-c1ccccc1",
    "IC50": "1000 to 15000 nM"
  },
  {
    "COMPOUND": "CCOc1cc(C(=O)N(C)[C@H](CCN(C)CCCF)c2cncc3cn[nH]c23)ccc1-c1ccccc1",
    "IC50": "< 100 nM"
  },
  {
    "COMPOUND": "CCOc1cc(C(=O)N(C)[C@@H](CCO)c2cncc3cn[nH]c23)ccc1-c1cccc(F)c1",
    "IC50": "< 100 nM"
  },
  {
    "COMPOUND": "CCOc1cc(C(=O)N(C)[C@H](CCN(C)C)c2ccc(C)c3cn[nH]c23)ccc1-c1ccccc1",
    "IC50": "100 to 500 nM"
  },
  {
    "COMPOUND": "CCOc1cc(C(=O)N(C)[C@H](CCN(C)C)c2cncc3cn[nH]c23)ccc1C(C)C",
    "IC50": "1000 to 15000 nM"
  },
  {
    "COMPOUND": "CCOc1cc(C(=O)N(C)[C@H](CCN(CC)CC)c2cccc3cn[nH]c23)ccc1-c1cccc(F)c1",
    "IC50": "< 100 nM"
  },
  {
    "COMPOUND": "CCOc1cc(C(=O)N(C)[C@@H](CN2CCCC2)c2cccc3cn[nH]c23)ccc1-c1cccc(F)c1",
    "IC50": "< 100 nM"
  }
]

Item: "CCOc1cc(C(=O)N(C)[C@H](CCNC(=O)CC)c2cncc3cn[nH]c23)ccc1-c1cccc(F)c1" Test system: NLRP3 (Homo sapiens, UniProt Q96P20) Read-out: IC50 Value: ?
< 100 nM

Item: "CCOc1cc(C(=O)N(C)[C@H](CCNCCF)c2cncc3cn[nH]c23)ccc1-c1ccccc1" Test system: NLRP3 (Homo sapiens, UniProt Q96P20) Read-out: IC50 Value: ?
< 100 nM

Item: "CCOc1cc(C(=O)N(C)[C@H](CCNCCCF)c2cncc3cn[nH]c23)ccc1-c1cccc(Cl)c1" Test system: NLRP3 (Homo sapiens, UniProt Q96P20) Read-out: IC50 Value: ?
< 100 nM

Item: "CCOc1cc(C(=O)N(C)[C@H](COC)c2cncc3cn[nH]c23)ccc1-c1cccc(Cl)c1" Test system: NLRP3 (Homo sapiens, UniProt Q96P20) Read-out: IC50 Value: ?
< 100 nM

Item: "CCOc1cc(C(=O)N(C)[C@H](C[C@H](C)O)c2cncc3cn[nH]c23)ccc1-c1cccc(Cl)c1" Test system: NLRP3 (Homo sapiens, UniProt Q96P20) Read-out: IC50 Value: ?
1000 to 15000 nM

Item: "CCOc1cc(C(=O)N(C)[C@@H](c2cncc3cn[nH]c23)[C@H]2CCN(C)C2)ccc1-c1cccc(F)c1" Test system: NLRP3 (Homo sapiens, UniProt Q96P20) Read-out: IC50 Value: ?
< 100 nM

Item: "CCOc1cc(C(=O)N(C)[C@@H](CCO)c2cnc(C)c3cn[nH]c23)ccc1-c1cccc(Cl)c1" Test system: NLRP3 (Homo sapiens, UniProt Q96P20) Read-out: IC50 Value: ?
< 100 nM

Item: "CCOc1cc(C(=O)N(C)[C@H](CCN(C)C)c2cncc3cn[nH]c23)ccc1-c1cccc(Cl)c1" Test system: NLRP3 (Homo sapiens, UniProt Q96P20) Read-out: IC50 Value: ?
< 100 nM

Item: CCOc1cc(C(=O)N(Cc2cnc(C)c3cn[nH]c23)C2CC2O)ccc1-c1cccc(F)c1 (centres unmarked) Test system: NLRP3 (Homo sapiens, UniProt Q96P20) Read-out: IC50 Value: ?
< 100 nM

Item: "CCOc1cc(C(=O)N(C)[C@H](CCN(C)CCCF)c2cncc3cn[nH]c23)ccc1-c1cccc(F)c1" Test system: NLRP3 (Homo sapiens, UniProt Q96P20) Read-out: IC50 Value: ?
< 100 nM

Item: "CCOc1cc(C(=O)N(C)[C@H](CCN(C)C)c2cncc3cn[nH]c23)ccc1-c1cccc(F)c1" Test system: NLRP3 (Homo sapiens, UniProt Q96P20) Read-out: IC50 Value: ?
< 100 nM

Item: "CCOc1cc(C(=O)N(C)[C@H](CCNC)c2cncc3cn[nH]c23)ccc1-c1cccc(Cl)c1" Test system: NLRP3 (Homo sapiens, UniProt Q96P20) Read-out: IC50 Value: ?
< 100 nM

Item: "CCOc1cc(C(=O)N(C)[C@H](CCN(C)CCF)c2cncc3cn[nH]c23)ccc1-c1ccccc1" Test system: NLRP3 (Homo sapiens, UniProt Q96P20) Read-out: IC50 Value: ?
< 100 nM

Item: "CCOc1cc(C(=O)N(Cc2cnc(C)c3cn[nH]c23)[C@H]2C[C@@H](NC)C2)ccc1-c1cccc(Cl)c1" Test system: NLRP3 (Homo sapiens, UniProt Q96P20) Read-out: IC50 Value: ?
< 100 nM
